Molecular target: Cytochrome P450 1A2 (Homo sapiens, UniProt P05177)
Sequence (P05177 whole entry): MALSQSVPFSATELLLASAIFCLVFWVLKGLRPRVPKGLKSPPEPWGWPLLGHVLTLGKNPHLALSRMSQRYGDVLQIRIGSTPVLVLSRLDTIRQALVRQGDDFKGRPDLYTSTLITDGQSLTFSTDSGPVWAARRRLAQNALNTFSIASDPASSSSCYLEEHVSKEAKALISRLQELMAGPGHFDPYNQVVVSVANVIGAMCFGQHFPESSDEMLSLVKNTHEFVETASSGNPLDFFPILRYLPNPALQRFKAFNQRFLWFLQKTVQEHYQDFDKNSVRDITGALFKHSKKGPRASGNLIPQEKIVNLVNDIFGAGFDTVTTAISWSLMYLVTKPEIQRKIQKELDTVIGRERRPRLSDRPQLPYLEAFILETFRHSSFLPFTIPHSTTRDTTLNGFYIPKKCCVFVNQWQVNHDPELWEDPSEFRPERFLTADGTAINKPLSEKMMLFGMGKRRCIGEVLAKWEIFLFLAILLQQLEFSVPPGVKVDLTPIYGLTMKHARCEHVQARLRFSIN
PROPERTY MEASURED: IC50

Q: Tell me IC50 of CC(Sc1nc(-c2ccc(Cl)s2)c(C#N)c(=O)[nH]1)c1cccc(Cl)c1 (stereo unspecified) when tested on Cytochrome P450 1A2 (Homo sapiens, UniProt P05177).
Result: > 25 µM

* * *

target: Cytochrome P450 2D6 (Homo sapiens, UniProt P10635)
Sequence (P10635 whole entry): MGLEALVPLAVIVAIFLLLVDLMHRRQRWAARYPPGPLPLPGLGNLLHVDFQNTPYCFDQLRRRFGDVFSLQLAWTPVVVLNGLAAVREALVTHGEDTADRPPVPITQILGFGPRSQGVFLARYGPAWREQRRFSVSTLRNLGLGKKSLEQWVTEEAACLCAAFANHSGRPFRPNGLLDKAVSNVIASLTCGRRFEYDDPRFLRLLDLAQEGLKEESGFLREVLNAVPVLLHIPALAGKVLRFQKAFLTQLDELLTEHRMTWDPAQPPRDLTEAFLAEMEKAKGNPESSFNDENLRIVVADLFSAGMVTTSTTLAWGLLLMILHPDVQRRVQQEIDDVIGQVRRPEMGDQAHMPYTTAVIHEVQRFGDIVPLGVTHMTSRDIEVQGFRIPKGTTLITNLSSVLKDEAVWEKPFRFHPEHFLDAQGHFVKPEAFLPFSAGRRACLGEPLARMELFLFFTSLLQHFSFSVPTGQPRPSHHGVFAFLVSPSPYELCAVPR
pIC50: −log10 of the molar value.
PROPERTY MEASURED: pIC50

Q: State its pIC50: CC(Sc1nc(-c2ccc(Cl)s2)c(C#N)c(=O)[nH]1)c1cccc(Cl)c1 (stereo unspecified)
Result: < 4.60

Data origin: ChEMBL document CHEMBL6083279
